Tested on: BDF1 mice, colon carcinoma 38 sc, T/C %
assay_method_text: NCI In Vivo Anticancer Drug Screen. Data for tumor model Colon Carcinoma 38 (subcutaneous) in B6D2F1 (BDF1) mice
assay_context: endpoint: median tumor weight (est.); dose: 25.0 mg/kg/injection; schedule: Q07DX002 (ip); vehicle: saline; higher = larger tumour
Method: The antitumor activity of compounds was measured in mice bearing transplantable tumors. Survival or tumor size were measured and the results are expressed as the measurement made in the treated group (T) divided by the measurement made in the vehicle treated control group (C). The tumor model used in this assay is Colon Carcinoma 38 (subcutaneous) in B6D2F1 (BDF1) mice
Results filed as inconclusive are left out.
In this section we review reported T/C values for a set of molecules.

Some solved cases for reference:
# molecule, result_type, observed_value
measured = [
    ("C[Si](C)(C)O/C=C1/CCOC1=O", "T/C", "84 % of control"),
    ("O=C1C(O)=C(c2ccccc2)C(=O)C(O)=C1c1ccccc1", "T/C", "55 % of control"),
    ("O=C(O)C(O)C(O)C1[O][Sb][O]C1C(=O)O (stereo unspecified)", "T/C", "35 % of control"),
    ("CN(C)CC(Cl)CCl (stereo unspecified)", "T/C", "105 % of control"),
    ("O=C(O)C(CSC(c1ccccc1)(c1ccccc1)c1ccccc1)N=Cc1cccs1 (stereo unspecified)", "T/C", "62 % of control"),
    ("COc1ccc(C[C@H](N)C(=O)NC2C(CO)OC(n3cnc4c(N(C)C)ncnc43)C2O)cc1 (stereo partly specified)", "T/C", "86 % of control"),
]

Form field: reported T/C of CN(C)[C@@H]1C(=O)C(C(N)=O)=C(O)[C@@]2(O)C(=O)C3=C(O)c4c(O)ccc(Cl)c4[C@@](C)(O)[C@H]3C[C@@H]12
182 % of control

Try this molecule too: COc1cccc2c1C(CO)N1C(C#N)C3CC(C(=O)O)C(C1C2)N3C (stereo unspecified)
108 % of control

Same question, O=[N+]([O-])O.[Ga] this time
159 % of control

Next: Cc1c2c(ccc3ccccc32)c[n+]2ccccc12
107 % of control

Next entry: [CH3][Sn]([CH3])([Cl])[S]CCN
47 % of control
